Entries and their Emax (%), ADC direct killing, NCI-H1650 (High), 3D values follow.
- tested.target: T1, B7H3 (human, UniProt Q5ZPR3 29-534)
- T1 sequence (looked up): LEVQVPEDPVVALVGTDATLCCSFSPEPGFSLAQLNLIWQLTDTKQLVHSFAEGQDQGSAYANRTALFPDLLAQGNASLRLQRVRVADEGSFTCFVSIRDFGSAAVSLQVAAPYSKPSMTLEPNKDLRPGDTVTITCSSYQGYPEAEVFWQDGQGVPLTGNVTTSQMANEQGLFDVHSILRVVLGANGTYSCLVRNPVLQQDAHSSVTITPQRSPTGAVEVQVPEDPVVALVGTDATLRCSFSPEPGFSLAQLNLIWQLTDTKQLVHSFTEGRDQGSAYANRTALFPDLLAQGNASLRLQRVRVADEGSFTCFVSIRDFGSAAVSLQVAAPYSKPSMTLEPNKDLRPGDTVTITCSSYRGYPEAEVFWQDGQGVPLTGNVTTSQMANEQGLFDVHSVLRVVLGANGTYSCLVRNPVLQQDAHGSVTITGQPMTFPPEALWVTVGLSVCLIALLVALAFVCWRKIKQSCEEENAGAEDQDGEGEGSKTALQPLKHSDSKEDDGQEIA
- test.method.notes: cell-based or functional assay

ADC4-12 (antibody, human IgG1, kappa, V domains shown, conjugator-linker-payload on cysteine thiols after TCEP reduction (DAR8), maleimide hydrolysed; residues not numbered; structure given only as a drawing) VH: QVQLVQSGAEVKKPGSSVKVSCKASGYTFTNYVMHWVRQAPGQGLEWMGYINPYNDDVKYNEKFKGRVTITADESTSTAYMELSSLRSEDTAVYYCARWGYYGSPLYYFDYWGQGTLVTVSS VL: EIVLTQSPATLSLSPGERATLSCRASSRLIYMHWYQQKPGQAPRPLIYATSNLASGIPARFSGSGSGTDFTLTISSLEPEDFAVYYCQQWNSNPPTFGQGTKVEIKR : 83.2%
ADC4-B (antibody, human IgG1, kappa, V domains shown, conjugator-linker-payload on cysteine thiols after TCEP reduction (DAR8); residues not numbered; structure given only as a drawing) VH: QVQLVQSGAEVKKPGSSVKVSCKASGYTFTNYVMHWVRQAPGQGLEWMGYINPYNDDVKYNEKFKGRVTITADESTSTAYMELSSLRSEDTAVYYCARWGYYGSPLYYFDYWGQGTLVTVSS VL: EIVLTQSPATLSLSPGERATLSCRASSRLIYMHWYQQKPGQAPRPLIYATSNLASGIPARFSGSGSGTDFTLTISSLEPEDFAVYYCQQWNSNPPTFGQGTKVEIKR : 66.5%

Turning now to a further record.
What value of measured Emax (%), ADC direct killing, NCI-H1650 (High), 3D is listed for ADC4-13 (antibody, human IgG1, kappa, V domains shown, conjugator-linker-payload on cysteine thiols after TCEP reduction (DAR8), maleimide hydrolysed; residues not numbered; structure given only as a drawing) VH: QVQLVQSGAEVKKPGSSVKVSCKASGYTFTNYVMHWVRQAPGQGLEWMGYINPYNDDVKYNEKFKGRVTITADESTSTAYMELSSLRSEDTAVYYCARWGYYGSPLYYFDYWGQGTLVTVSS VL: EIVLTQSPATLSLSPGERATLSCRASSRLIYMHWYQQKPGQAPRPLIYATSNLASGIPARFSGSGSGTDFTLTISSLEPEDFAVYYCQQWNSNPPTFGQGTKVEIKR ?
79.3%
